tested on: Staphylococcus aureus; test: Broth two-fold serial dilution MIC test; type: cell-based, Staphylococcus aureus (ATCC 6538); conditions: Staphylococcus aureus, Table 2; Saur; TSB media; read-out: MIC
Kindly state log10 MIC for each of the entries shown.
All values: base-10 log of MIC in µg/mL.

Sure, the documented log10 MIC for CCCCCCCCCCOC(=O)C[N+]1(CC#CI)CCOCC1 is 0.90

Sure, the documented log10 MIC for CCCCCCCCCCCC[N+]1(CC#CI)CCOCC1 is 0.60

Sure, the documented log10 MIC for CCCCCCCCCCCCOC(=O)C[N+]1(CC#CI)CCOCC1 is 0.30

Sure, the documented log10 MIC for CCCCCCOC(=O)CCCCC[N+]1(CC#CI)CCCC1 is 0.90

Sure, the documented log10 MIC for OCCCCCCCCCCCC[N+]1(CC#CI)CCCCC1 is 1.80

Sure, the documented log10 MIC for C[N+]1(CC#CI)CCCCC1 is 1.51

Sure, the documented log10 MIC for OCCCCCCCCCCCC[N+]1(CC#CI)CCCCCC1 is 1.51

Sure, the documented log10 MIC for IC#CC[N+]1(Cc2ccccc2)CCOCC1 is 2.40

Sure, the documented log10 MIC for CCCCCCCCCCOC(=O)CC[N+]1(CC#CI)CCCC1 is 1.20

Sure, the documented log10 MIC for OCCCCCCCCCCC[N+]1(CC#CI)CCCCC1 is 1.20

Sure, the documented log10 MIC for CCCCCC[N+]1(CC#CI)CCCC1 is 1.20

Sure, the documented log10 MIC for CCCCCCCCCCOC(=O)CC[N+]1(CC#CI)CCOCC1 is 1.81

Sure, the documented log10 MIC for CCCCCCCCCCCCCCC[N+]1(CC#CI)CCOCC1 is -0.60

Sure, the documented log10 MIC for CCCCCCCCCCC[N+]1(CC#CI)CCCC1 is -0.60

Sure, the documented log10 MIC for CCCCCCOC(=O)CCCCC[N+]1(CC#CI)CCOCC1 is 1.20

Sure, the documented log10 MIC for OCCCCCCC[N+]1(CC#CI)CCCCC1 is 2.70

====

Test system: Escherichia coli
Experiment: Broth two-fold serial dilution MIC test
Type: cell-based, Escherichia coli (ATCC 11229)
Conditions: Table 2; Ecol; M9G media
Source text: A minimum inhibitory concentration (MIC) value is obtained using a broth, two-fold serial dilution test performed as follows: A stock solution or dispersion of the test compound, typically at a concentration of 1%, is made in a 5:3:2 solvent solution of acetone. methanol, and water. […] When the test is ready to be done, each vessel in the dilution series, except the first vessel, contains an equal volume of compound free broth. […]
Kindly state MIC for each of the entries shown.

Tested on Escherichia coli, the item CCCCCCCCCCCCCC[N+]1(CC#CI)CCCC1 [Compound 39] showed MIC equal to 1 ppm

Tested on Escherichia coli, the item CCCCCCOC(=O)CCCCC[N+]1(CC#CI)CCCC1 [Compound 84] showed MIC equal to 16 ppm

Tested on Escherichia coli, the item CCCCCCCCCCCCCCCC[N+]1(CC#CI)CCOCC1 [Compound 49] showed MIC equal to 1 ppm

Tested on Escherichia coli, the item CCCCCCCCCC[N+]1(CC#CI)CCCC1 [Compound 78] showed MIC equal to 2 ppm

Tested on Escherichia coli, the item CCCCCCCCCC[N+]1(CC#CI)CCCC1 [Compound 11] showed MIC equal to 16 ppm

Tested on Escherichia coli, the item CCCCCCCCCCOC(=O)C[N+]1(CC#CI)CCCC1 [Compound 70] showed MIC equal to 2 ppm

Tested on Escherichia coli, the item CCCCCCCCCCCCCC[N+]1(CC#CI)C=NCC1.O=S(=O)([O-])c1ccccc1 (stereo not drawn) [Compound 56] showed MIC equal to < 0.25 ppm

Tested on Escherichia coli, the item CCCCCCCCCCCC[N+]1(CC#CI)CCCC1 [Compound 79] showed MIC equal to 1 ppm

Tested on Escherichia coli, the item CCCCCCCCCCCCCCC[N+]1(CC#CI)CCCC1 [Compound 38] showed MIC equal to 1 ppm

Tested on Escherichia coli, the item CCCCCCCCCCOC(=O)CC[N+]1(CC#CI)CCOCC1 [Compound 96] showed MIC equal to 8 ppm

Tested on Escherichia coli, the item CCCCCCCCCCCCOC(=O)C[N+]1(CC#CI)CCCC1 [Compound 64] showed MIC equal to 1 ppm

Tested on Escherichia coli, the item CCCCCCCCCCCCCC[N+]1(CC#CI)CCCC1 [Compound 34] showed MIC equal to 0.25 ppm

Tested on Escherichia coli, the item CCCCCCCCCCCCCC[N+]1(CC#CI)CCCCC1 [Compound 85] showed MIC equal to 1 ppm

Tested on Escherichia coli, the item CCCCCCCCCCCCCCC[N+]1(CC#CI)CCCC1 [Compound 33] showed MIC equal to 1 ppm

Tested on Escherichia coli, the item CCCCCCCCCCCCCCCC[N+]1(CC#CI)CCCCC1 [Compound 61] showed MIC equal to 8 ppm

Tested on Escherichia coli, the item CCCCCCCCCCCCCC[N+]1(CC#CI)CCNC1.O=S(=O)([O-])c1ccccc1 (stereo not drawn) [Compound 58] showed MIC equal to 4 ppm

Tested on Escherichia coli, the item CCCCCCCCCCCCCC[N+]1(CC#CI)CCOCC1 [Compound 71] showed MIC equal to 1 ppm

Tested on Escherichia coli, the item CCCCCCCCCCCC[N+]1(CC#CI)CCCC1 [Compound 13] showed MIC equal to 32 ppm

Tested on Escherichia coli, the item CCCCCCCCCCCCCC[N+]1(CC#CI)CCCC1 [Compound 69] showed MIC equal to 1 ppm

Tested on Escherichia coli, the item CCCCCCCCCCCCCC[N+]1(CC#CI)CCOCC1 [Compound 72] showed MIC equal to 0.5 ppm

Tested on Escherichia coli, the item CCCCCCCCCCCCCC[N+]1(CC#CI)CCCCC1 [Compound 25] showed MIC equal to 2 ppm
